Below, each entry is listed with its recorded protein stability index.
B1: C9orf9 (parent)
chain: LTKASLKPRGCSKPPWRPPGGKL

Variants of: B1
Assay: protein stability index of a GFP-peptide fusion (GPS, HEK-293T) (PSI 1-6); higher = more stable;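 further: lentivirally expressed fusions sorted by FACS into six bins by GFP to DsRed ratio, PSI derived from sequencing read proportions per bin multiplied by bin number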
Details: c terminus: native
Form rule: numeric answer, no unit written next to it.

INSERT INTO assay_data (residues, reportedvalue) VALUES
  ('LTKASLKPPGCSKPPWRPPGGKL [R9P]', 1.34),
  ('LTKWSLKPRGCSKPPWRPPGGKL [A4W]', 2.44),
  ('LTKASLEPRGCSKPPWRPPGGKL [K7E]', 1.51);

Lookup: Record request: protein stability index value, item PTKASLKPRGCSKPPWRPPGGKL [L1P]
Found: 2.06

Lookup: Quick one: protein stability index of LTKACLKPRGCSKPPWRPPGGKL [S5C] ?
Found: 1.86

Lookup: Record request: protein stability index value, item LTKAGLKPRGCSKPPWRPPGGKL [S5G]
Found: 1.24

Lookup: Item LTKASLKPRGDSKPPWRPPGGKL [C11D] has what recorded protein stability index?
Found: 1.76

Lookup: For the variant shown here, LTKASLKPCGCSKPPWRPPGGKL [R9C] , give the reported protein stability index.
Found: 3.36

Lookup: Please look up its protein stability index: LTKASLKPRGCSKPPWRPPGGKQ [L23Q]
Found: 2.91

Lookup: Look at this variant and give its reported protein stability index. LTKASLKPRGCRKPPWRPPGGKL [S12R]
Found: 1.34

Lookup: Can you look up the measured protein stability index of LTKASLKQRGCSKPPWRPPGGKL [P8Q] for me?
Found: 4.76
